- ASSAY_COMMENT: modulators of HCV replicon luciferase signal, primary screen, HCV replication inhibitor project, Huh7 cells, luciferase reporter (AID 1109);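 note: huh7 hepatoma cells harbouring a luciferase neomycin HCV replicon reporter; luciferase luminescence as measure of HCV replicon replication; test concentration not given here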
- ASSAY_CONTEXT: 48 h, higher = more signal
PROPERTY_NAME: z-score
Please state the value as a number alone, without comment.

The compound listed as COc1ccc([Si](C)(C)[C@@H]2[C@@H](CC(=O)N(CCO)Cc3ccccc3)O[C@]3(C(=O)N(Cc4cccc(N5CCOC5=O)c4)c4ccccc43)[C@H]2C)cc1 has a reported z-score of -3.7

The compound listed as COCCOC(=O)N1C(=O)[C@@]2(c3cc(C#CC4(O)CCCCCC4)ccc31)[C@H](c1ccc(O)cc1)N1[C@H](c3ccccc3)[C@H](c3ccccc3)OC(=O)[C@H]1[C@@H]2C(=O)NC[C@H](O)c1ccccc1 has a reported z-score of -1.03

The compound listed as C=C(/C(=C/C[C@H](OC(C)=O)c1cccc(OCCO)c1)c1cnc2ccccc2c1)C(C)C has a reported z-score of -2.31

The compound listed as CC(C)C(CO)N1C(=O)[C@@H]2C3C(=O)OCCC/C=C\[C@H]3OC23C=CCN(C(C)(C)C)C(=O)[C@@H]13 (stereo not given in full) has a reported z-score of -0.57

The compound listed as COC(=O)c1c(CC[C@@H](CO)NC(=O)N[C@H](Cn2cc(C3(O)CCCCC3)nn2)C(C)C)oc(C(C)=O)c1C(=O)OC has a reported z-score of -0.415

The compound listed as COCC1=C2[C@@H](CCc3ccccc3)OB(O)C[C@@H]2[C@@H]2C(=O)C=CC(=O)[C@@H]2C1 has a reported z-score of -2.08

The compound listed as O=C1O[C@H](c2ccccc2)[C@H](c2ccccc2)N2[C@H]1[C@@H](C(=O)Nc1nc3ccccc3s1)[C@]1(C(=O)Nc3ccc(C#CC4(O)CCCCCC4)cc31)[C@H]2c1ccccc1OCCO has a reported z-score of -2.69

The compound listed as CCOc1cc(C(O)C2C=CC3C(=O)N(c4ccccc4)C(=O)C3N2Nc2ccc(C#N)cc2)ccc1O (stereo not given) has a reported z-score of -0.131

The compound listed as COc1cc(CO)cc(I)c1O[C@H]1C=C(C(=O)NCCO)C[C@@H](NCc2ccc(F)cc2)[C@@H]1O has a reported z-score of -4.07

The compound listed as CCC[C@@H]1C[C@@]1(CCC)[C@@H](NC(=O)OCc1ccccc1)c1ccc(-c2ccccc2)cc1 has a reported z-score of -1.5

The compound listed as COC(=O)c1c2oc(c1C(=O)OC)C(=O)N(Cc1ccccc1)Cc1cn(nn1)C[C@H](Cc1ccccc1)NC(=O)N[C@H](CO)CC2 has a reported z-score of -0.533

The compound listed as [N-]=[N+]=Nc1ccccc1[C@H]1OC(c2ccc(OCCCO)cc2)=N[C@@]1(Cc1ccccc1)C(=O)N1CCCCC1 has a reported z-score of -2.13

The compound listed as CCCCC=C[C@@H](NC(=O)c1ccc(-c2ccccc2)cc1)c1ccccc1 has a reported z-score of -2.21

The compound listed as CCOC(=O)C1=CC[C@@H](c2cccc(Cl)c2)N(S(=O)(=O)c2ccc(C)cc2)C1 has a reported z-score of -1.76

The compound listed as CCCCCCc1nc(-c2cc(C)c(OC)c(C)c2)c(C)c2c1[Si](C(C)C)(C(C)C)OC2 has a reported z-score of 0.791
